All figures here come from patent US6559101B2.

System: velvetleaf (Abutilion theophrasti)
assayProtocol: Preemergence herbicidal activity
Assay type: in vivo
conditionSet: 35 g/Ha; scored after 3 weeks; 0 no injury, 100 complete kill or no germination
Field: Preemergence herbicidal activity ABUTH. Provide a value for each of the compounds that follow.
Give bare numbers, in %.

Example results:
In [3]: df
Out[3]:
                             compoundstring                                quantity  unit  valuereported
0  CCOc1nccc(C(F)(F)F)c1S(=O)(=O)Nc1nc2nc(OC)cc(OC)n2n1  Preemergence herbicidal activity ABUTH     %             80
1  COc1cc(OC)n2nc(NS(=O)(=O)c3cc(Cl)ccc3OCCF)nc2n1  Preemergence herbicidal activity ABUTH     %             60
2  CCOc1ccc(C)cc1S(=O)(=O)Nc1nc2nc(OC)cc(OC)n2n1  Preemergence herbicidal activity ABUTH     %             60
3  COc1cc(OC)n2nc(NS(=O)(=O)c3cc(C)ccc3OC)nc2n1  Preemergence herbicidal activity ABUTH     %             98

// below: Preemergence herbicidal activity ABUTH requested for another compound
Preemergence herbicidal activity ABUTH reading for `COc1cc(OC)n2nc(NS(=O)(=O)c3c(C(F)(F)C(F)(F)F)ccnc3OC)nc2n1` : 95
